System: left saphenous nerve of rats (ectopic firing)
Measurement notes: Inhibition of ectopic firing
Assay type: in vivo
Condition parameters: Rattus norvegicus, iv; rats with cut left saphenous nerve, urethane anesthesia, compound via catheter in right cervical vein, number of firings in 10 seconds; read-out: Inhibition of ectopic firing (ID50)
Here the recorded ED50 is given for each entry.

# example entries with known answers
Cc1ccc(-c2ccccc2)n1CC1(O)CCN(Cc2ccc[nH]c2=O)CC1	0.5 to 1 mg/kg
O=c1[nH]ccnc1CN1CCC(CCc2sccc2F)CC1	0.5 to 1 mg/kg
COc1ccccc1CC(=O)C1CCN(Cc2ncc[nH]c2=O)CC1	< 0.5 mg/kg
O=c1cncc(CCN2CCC(COc3ccc(F)cc3)CC2)[nH]1	0.5 to 1 mg/kg
O=c1[nH]cccc1CN1CC2CCCC(C1)C2/C=C/c1ccccc1F (stereo not drawn)	0.5 to 1 mg/kg

Sample O=c1[nH]c2ccccc2nc1CN1CCC(COc2ccccc2F)CC1 ; ED50 observed: 0.5 to 1 mg/kg

According to the records, this compound CCOc1ccccc1CC(=O)C1CCN(Cc2ncc[nH]c2=O)CC1 displays ED50 of < 0.5 mg/kg

Kindly note the recorded ED50 for O=c1[nH]ccnc1CN1CCC(COc2ccc(F)cc2F)CC1 , which is < 0.5 mg/kg

Form: compound = Cc1ccc(-c2ccccc2)n1CC1(O)CCN(Cc2ncc[nH]c2=O)CC1 ; ED50 = 0.5 to 1 mg/kg

The compound listed as O=c1[nH]cccc1CN1CCC(CO)(CCc2ccccc2)CC1 has a reported ED50 of 0.5 to 1 mg/kg

Kindly note the recorded ED50 for O=c1[nH]ccnc1CN1CCC(COc2ccccc2C(F)(F)F)CC1 , which is < 0.5 mg/kg

get_value(item= O=C(Cc1ccccc1F)C1CCN(Cc2ncc[nH]c2=O)CC1 , readout=ED50) returns < 0.5 mg/kg

Field ED50 (entry O=c1[nH]ccnc1CN1CCC(COc2ccccc2Cl)CC1 ) reads < 0.5 mg/kg

# ED50 (compound: O=c1[nH]ccnc1CN1CCC(c2nc(-c3ccccc3F)no2)CC1 ) is 0.5 to 1 mg/kg

Entry O=c1[nH]ccnc1CN1CCCC(CCc2ccccc2F)C1 (stereo not drawn) — recorded ED50 = 0.5 to 1 mg/kg

Reported ED50 for CSc1ccccc1CC(=O)C1CCN(Cc2ncc[nH]c2=O)CC1 was < 0.5 mg/kg

Consider O=c1[nH]ccnc1CN1CCC(COc2ccccc2OC(F)(F)F)CC1 . Its measured ED50 is < 0.5 mg/kg

Reported ED50 for O=c1[nH]cccc1CN1CCC(CCc2ccccc2F)(COc2ccccc2F)CC1 was 0.5 to 1 mg/kg

Form field ED50, entry O=c1cncc(CCN2CCC(COc3ccccc3F)CC2)[nH]1 : < 0.5 mg/kg

The recorded ED50 for entry O=c1[nH]ccnc1CCN1CCC(COc2ccccc2F)CC1 equals < 0.5 mg/kg

// recorded ED50 for Cc1ccccc1OCC1CCN(Cc2ncc[nH]c2=O)CC1 : < 0.5 mg/kg

Field ED50 (entry O=c1[nH]ccnc1CN1CCC(CC(F)c2ccccc2F)CC1 (stereo not drawn) ) reads < 0.5 mg/kg

Query O=c1[nH]cccc1CN1CCC(O)(C#Cc2ccccc2F)CC1 yields ED50 of < 0.5 mg/kg

For reference, reported ED50 for Cc1ccccc1OCC1CCCN(Cc2ncc[nH]c2=O)C1 (stereo not drawn) stands at 0.5 to 1 mg/kg

Documented ED50 of O=C(Cc1cccc(F)c1F)C1CCN(Cc2ncc[nH]c2=O)CC1 : 0.5 to 1 mg/kg

// O=c1[nH]cccc1CN1CCC(F)(COc2ccccc2F)CC1 : ED50 value = < 0.5 mg/kg

Noted for O=c1[nH]ccnc1CN1CCC(CCc2ccccc2F)C1 (stereo not drawn) : its ED50 reads 0.5 to 1 mg/kg

ED50 recorded for this compound, Cc1ccccc1OCC1(O)CCN(Cc2ccc[nH]c2=O)CC1 , is 0.5 to 1 mg/kg

Measured ED50, O=c1[nH]cccc1CN1CCC(O)(COc2ccccc2F)CC1 : < 0.5 mg/kg

###

System: left saphenous nerve of rats (ectopic firing)
Measurement notes: Inhibition of ectopic firing
Format: in vivo
Condition parameters: Rattus norvegicus, iv; rats with cut left saphenous nerve, urethane anesthesia, compound via catheter in right cervical vein, number of firings in 10 seconds; read-out: Inhibition of ectopic firing (ID50)
# ED50 listing for each entry below

O=c1[nH]ccnc1CN1CCC(COc2cccc(F)c2)CC1	0.5 to 1 mg/kg
O=c1[nH]ccnc1CN1CCC(CCc2cccc3ccoc23)CC1	< 0.5 mg/kg
O=c1[nH]ccnc1CN1CCC(CCc2ccccc2F)CC1	< 0.5 mg/kg
O=C(Cc1c(F)cccc1C(F)(F)F)C1CCN(Cc2ncc[nH]c2=O)CC1	< 0.5 mg/kg

Consider the record given below.
Hey, left saphenous nerve of rats (ectopic firing) data for Cc1ccccc1CC(=O)C1CCN(Cc2ncc[nH]c2=O)CC1 : ED50 came out at < 0.5 mg/kg

###

Tested on: sodium channels
Type: cell-based
Condition parameters: read-out: IC50 (μM), sodium channel-inhibiting activity; rat fetal cultured hippocampal neurons, SBFI fluorescence in the presence of 4-aminopyridine, 5 minutes after addition, 1 μM tetrodotoxin = 100%
Result type: IC50 (µM)
Could you give me the number in µM? Just the number is fine.

O=c1[nH]ccnc1CN1CCC(CCc2sccc2F)CC1	5

Quick note, IC50 for Cn1c(CCN2CCC(COc3ccccc3F)CC2)cncc1=O landed at 3.2

###

Tested on: sodium channels
Assay type: cell-based
Condition parameters: read-out: IC50 (μM), sodium channel-inhibiting activity; rat fetal cultured hippocampal neurons, SBFI fluorescence in the presence of 4-aminopyridine, 5 minutes after addition, 1 μM tetrodotoxin = 100%
In plain terms, low IC50, meaning strictly below 4 µM, gives 1 (yes), and everything else gives 0 (no).

Worked examples, 5 compounds total:
O=c1[nH]c2ccccc2nc1CN1CCC(COc2ccccc2F)CC1	0 (no)
O=c1[nH]cc(Cl)cc1CN1CCC(O)(COc2ccccc2F)CC1	0 (no)
Cc1ccsc1/C=C/C1CCN(Cc2ncc[nH]c2=O)CC1	1 (yes)
O=c1cncc(CCN2CCC(COc3ccccc3)CC2)[nH]1	0 (no)
CC1(COc2ccccc2Cl)CCN(Cc2ncc[nH]c2=O)CC1	1 (yes)

Challenge: is_below(IC50, 4 µM) for O=c1[nH]ccnc1CN1CCC(c2nc(-c3ccccc3F)no2)CC1 ?
Response given: 1 (yes)

###

Test system: sodium channels
Type: cell-based
Condition parameters: read-out: IC50 (μM), sodium channel-inhibiting activity; rat fetal cultured hippocampal neurons, SBFI fluorescence in the presence of 4-aminopyridine, 5 minutes after addition, 1 μM tetrodotoxin = 100%
I'd appreciate it if you marked entries rule met when IC50 is lower than 3 µM and rule not met when it is not.

Would you please look over these solved cases?
O=c1[nH]ccnc1CN1CCC(CCc2ccccc2F)C1 (centres unmarked) [Example 134]	rule not met
O=c1[nH]ccnc1CN1CCC(COc2ccc(F)cc2)CC1 [Example 199]	rule not met
O=c1[nH]ccnc1CN1CCC(C[S+]([O-])c2ccccc2F)CC1 (centres unmarked) [Example 337]	rule not met
Cc1ccccc1CCC1(O)CCN(Cc2ncc[nH]c2=O)CC1 [Example 222]	rule met

Could you now consider this next compound?
Challenge: hey, is IC50 for O=c1[nH]ccnc1CN1CCOC(/C=C/c2ccccc2F)C1 (centres unmarked) [Example 341] lower than 3 µM or not?
Response given: rule not met

###

System: sodium channels
Type: cell-based
Condition parameters: read-out: IC50 (μM), sodium channel-inhibiting activity; rat fetal cultured hippocampal neurons, SBFI fluorescence in the presence of 4-aminopyridine, 5 minutes after addition, 1 μM tetrodotoxin = 100%
compounds and their reported IC50
The answer is to be given in µM; state only the numeric part.

O=c1[nH]ccnc1CN1CCC(CC(O)c2ccccc2F)CC1 (centres unmarked)	5.8
O=c1[nH]ccnc1CN1CCCCC1CCOc1ccccc1F (centres unmarked)	2.1
Cc1ccccc1OCC1CCN(Cc2ncc[nH]c2=O)CC1	2.5

Form field, IC50 with sodium channels, item O=c1[nH]ccnc1CN1CCC(COc2cc(F)ccc2F)CC1 : 2.9

Entry O=c1[nH]ccnc1CN1CCC(COc2cccc(F)c2)CC1 ; assay system sodium channels; IC50 recorded at 4.6

###

Tested on: sodium channels
Assay type: cell-based
Condition parameters: read-out: IC50 (μM), sodium channel-inhibiting activity; rat fetal cultured hippocampal neurons, SBFI fluorescence in the presence of 4-aminopyridine, 5 minutes after addition, 1 μM tetrodotoxin = 100%
Quick reference: IC50 of the listed items.
Numbers only; they are read as µM.

O=c1[nH]ccnc1CN1CCC(COc2ccccc2C(F)(F)F)CC1 [Example 164]	3.3
O=c1[nH]cccc1CN1CCC(CO)(CCc2ccccc2)CC1 [Example 256]	5.8

// sample Cc1ccccc1OCC1(CCc2ccccc2F)CCN(Cc2ncc[nH]c2=O)CC1 [Example 225] , its IC50 was 1.6

The recorded IC50 for Cc1ccc(-c2ccccc2)n1CC1CCN(Cc2ncc[nH]c2=O)CC1 [Example 182] is 7.8

Reported IC50 ( O=c1[nH]cccc1CN1CCC(O)(COc2ccccc2F)CC1 [Example 253] ) = 9.2
